- Procedure Summary: qHTS for inhibitors of binding or entry into cells for Marburg Virus
- Details: Marburg virus pseudotyped entry inhibition, cell reporter; series mostly up to 37.8 µM
The whole screen tested about 300,000 compounds, of which about 5,400 (1.8%) were called active. About 28% were inconclusive and are not listed. The call rests on the fitted dose curve; tested in HEK293 cells. The sample holds actives, similar compounds and a random draw of the others, so the mix is not that of the screen.
Possible outcomes: 1 (active), 0 (inactive)

> print(dat)
                                    compound  class.label
 1                   CN(Cc1ccccc1)Cc1ccccc1F            0
 2  CC1CCN(C(=O)/C(=C\c2ccccc2)NC(=O)c2ccccc2)CC1            0
 3  Cc1ccc(S(=O)(=O)C2(S(=O)(=O)c3ccc(C)cc3)CCCC2)cc1            1
 4  COc1ccc(-c2csc(NC(=O)COC(=O)Cc3ccc(Cl)cc3Cl)n2)cc1            0
 5  Cn1c(Cc2cccc3ccccc23)nnc1SCC(=O)N1CCN(c2cccc(Cl)c2)CC1            1
 6  CCC(=O)Oc1cccc(C(=O)Nc2ccc(-c3nnc(-c4ccco4)o3)cc2)c1            0
 7  CC1(c2ccccc2)NC(=O)N(CC(=O)Nc2cc(Cl)ccc2N2CCOCC2)C1=O (stereo not given)            0
 8  Cc1ccccc1NC(=O)Cc1nnc(SCC(=O)N2CCN(c3ccccc3)CC2)n1C            0
 9      Cc1ccc(-c2csc(NC(=O)Cc3cccs3)n2)cc1C            0
10      COc1ccccc1C(=O)c1ccccc1C(=O)c1ccccc1            0
11  Cc1cccc2nc(CSc3nc4[nH]ncc4c(=O)n3-c3cccc(Cl)c3)cc(=O)n12            1
12          O=c1[nH]c(NCCO)nnc1Cc1ccc(Cl)cc1            0
13  Cc1ccc(S(=O)(=O)N(C)C2(C)CCS(=O)(=O)C2)cc1 (stereo not given)            0
14                COCCCNCCOCCOc1ccc(Cl)cc1Br            1
15     N=c1n(CCc2ccccc2)c2ccccc2n1Cc1ccccc1F            1
16             CCCn1c(NCc2ccccc2F)nc2ccccc21            0
17                   C1CCC2=C(C1)CN1CCCC1=N2            0
18  CC(=O)c1c(O)c(C)c(O)c(Cc2c(O)c3c(c(C(=O)/C=C\c4ccccc4)c2O)OC(C)(C)C=C3)c1O            1
19  O=C(CC(O)(C(F)(F)F)C(F)(F)F)Nc1ccc(Cl)c(Cl)c1            1
20        Cc1ccc2nc(SCC(=O)NC3CCCC3)[nH]c2c1            0
21  Cn1c(CNC(=O)c2ccco2)nnc1SCC(=O)N1CCN(c2ccccc2)CC1            0
22  CCCCC(=O)NC(c1ccc(OC)c(OC)c1)c1ccc2cccnc2c1O (stereo not given)            1
23  CC1(C)CC2CC(C)(CN2c2ncnc3ccc(Br)cc23)C1 (stereo not given)            1
24               O=C(/C=C/c1ccccc1)c1ccccc1O            0
25  CC(NS(=O)(=O)c1ccc(OCC(=O)N2CCCC2)cc1)c1ccccc1 (stereo not given)            0
26            Cc1ccc(S(=O)(=O)NC2CCCCCC2)cc1            0
27                   C=CCNc1ncnc2ccc(Br)cc12            0
28  CCOc1ccc(-n2c(O)c(/C=N/Nc3nnc(C)c(=O)[nH]3)c3ccccc3c2=O)cc1            0
29  CCN(CC(=O)Nc1ccc(OC)cc1)C(=O)c1ccc(=O)n(Cc2ccccc2)n1            0
30      COc1ccc(C(=O)CSc2nnc(-c3ccco3)o2)cc1            0
31  COc1ccc(Cc2nnc(N/N=C/c3ccccc3O)[nH]c2=O)cc1OC            1
32  COc1ccc(-c2csc(NC(=O)c3ccc(N4C(=O)CCC4=O)cc3)n2)cc1OC            0
33    OCCNc1nc2ccccc2n1-c1ncnc2sc3c(c12)CCC3            1
34  COc1ccc(-n2cc(CNC3CCOCC3)c(-c3cccc(F)c3)n2)cc1            1
35    O=C(O)[C@@H]1CCCN1c1ncnc2sc3c(c12)CCC3            0
36   CN1c2ccc(C=O)c3c(C=O)ccc(c23)N(C)C1(C)C            1
37  N/C(=N\OC(=O)Nc1ccc(Cl)c(Cl)c1)c1ncc(C(F)(F)F)cc1Cl            0
38                   COCCNCCOCCOc1cccc(OC)c1            0
39  CC(=O)C1=C(C)NC(=O)NC1c1ccc2c(c1)OCO2 (stereo not given)            0
40  CSCCC(NC(=O)c1ccccc1)C(=O)N1CCN(Cc2ccc(Cl)cc2)CC1 (stereo not given)            1
41  COCCOC(=O)C1=C(C)NC(=O)NC1c1cc2c(cc1Br)OCO2 (stereo not given)            0
42           CCOc1ccc(-c2nnc(-c3ccco3)o2)cc1            1
43   O=C1CN(C(=O)COc2c(Cl)cccc2Cl)c2ccccc2N1            0
44  Cc1cccc(N(Cc2ccccc2)C(=O)c2cc(S(=O)(=O)N3CCOCC3)ccc2F)c1            0
45  COc1ccc(N2CCN(S(=O)(=O)c3cc(Br)cnc3N)CC2)cc1            0

----------
- Procedure Summary: qHTS for inhibitors of binding or entry into cells for Marburg Virus
- Details: Marburg virus pseudotyped entry inhibition, cell reporter; series mostly up to 37.8 µM
Screen size: about 300,000 compounds; about 5,400 (1.8%) were called active. About 28% were inconclusive and are not listed. The call rests on the fitted dose curve; tested in HEK293 cells. The list comes from a sample in which actives are over-represented; it also holds close analogues and randomly drawn compounds.
Labels: active, inactive

> print(dat)
                            molecule.smiles  class.label
1  O=C(NCc1cccnc1)c1cn(-c2ccccc2)nc1-c1cccs1     inactive
2  CC(=O)C1=C(C)NC(C)=C(C(C)=O)C1c1cn(-c2ccccc2)nc1-c1cccs1     inactive
3  Cc1cccc(N(C)C(=O)c2cc3c(=O)[nH]c4ccc(C)cc4c3s2)c1       active
4  Cc1nn(-c2ccccc2)c2c1[C@@H](c1ccc(F)cc1F)C(C#N)=C(N)O2     inactive
5  COc1ccc(CNC(=O)C2CCN(C(=O)c3ccco3)CC2)cc1     inactive

----------
- Procedure Summary: qHTS for inhibitors of binding or entry into cells for Marburg Virus
- Details: Marburg virus pseudotyped entry inhibition, cell reporter; series mostly up to 37.8 µM
Screen size: about 300,000 compounds; about 5,400 (1.8%) were called active. Not shown: some 28% with an inconclusive outcome. Calls come from the whole dose curve; tested in HEK293 cells. Only a selection was taken, and actives are over-represented in it overall.
Outcome codes: active, inactive

> print(dat)
                                    molecule  class.label
 1  N#CC1=C(SCc2ccc(C#N)cc2)N=C(N)C(c2nc(-c3ccccc3)cs2)C12CCCCC2 (stereo unspecified)       active
 2  COc1ccc(OC)c(Cc2nnc(CCC(=O)NC3CCCC3)o2)c1     inactive
 3  CCOC(=O)c1ccc(NC(=O)CS(=O)(=O)c2cn(CC)c3ccccc23)cc1       active
 4  Cc1ccc(C)c(NS(=O)(=O)c2ccc(OCC(=O)NCc3cccnc3)cc2)c1     inactive
 5       O=[N+]([O-])c1cc2ccccc2nc1-c1ccccc1     inactive
 6        CCOC(=O)c1ccc(NC(=O)CSc2ncccn2)cc1     inactive
 7                  Clc1ccc(CN2CCCCCC2)cc1Cl     inactive
 8  CN1CCN(CCNC(=O)Nc2ccccc2[N+](=O)[O-])CC1     inactive
 9  CCOc1cc(NC(=O)c2ccccn2)c(OCC)cc1NC(=O)c1ccc(OC)cc1     inactive
10  O=C1CC(c2ccccc2)C(=O)N2C(=O)CC(c3ccccc3)C(=O)N12 (stereo unspecified)     inactive
11  CCC(C)(NC(=O)c1ccccn1)C(=O)NC1CCCCC1 (stereo unspecified)     inactive

----------
- Procedure Summary: qHTS for inhibitors of binding or entry into cells for Marburg Virus
- Details: Marburg virus pseudotyped entry inhibition, cell reporter; series mostly up to 37.8 µM
In all, about 300,000 compounds went through this assay and about 5,400 (1.8%) were called active. Roughly 28% stayed inconclusive and do not appear here. Calls follow the shape of the full dose curve; tested in HEK293 cells. For the sample, actives were picked, then their nearest neighbours and some compounds at random.
Classes used: True for active, False for inactive

> print(dat)
                                    compound  class.label
 1          OCc1ccc(-c2ccccc2)c(-c2ccccc2)c1        False
 2    O=C(Nc1c2c(nc3ccccc13)CCCC2)c1ccccc1Br        False
 3  OC1CCCN(c2ncnc3c2nnn3Cc2c(F)cccc2Cl)C1 (stereo unspecified)         True
 4  O=C(CSc1ncnc2c1nnn2Cc1ccc(F)cc1)NC1CCCC1        False
 5  Cc1ccc(S(=O)(=O)N2CCC(C(=O)N3CCCCCCC3)CC2)cc1        False
 6         Cc1ccc(Nc2c3c(nc4ccccc24)CCC3)cc1         True
 7  Cc1ccc(NS(=O)(=O)c2cccs2)cc1S(=O)(=O)N1CCCCCC1         True
 8  O=S(=O)(Nc1ccccc1)c1ccc(NS(=O)(=O)c2cccs2)cc1        False
 9           O=C(Nc1cccc2c1CCCC2)c1ccc(F)cc1        False
10  CCOc1ccc(NC(=O)CSc2c3c(nc4ccccc24)CCCC3)cc1        False
11  COCCn1c(C)cc(C2=NNC(=Nc3ccc(F)cc3)SC2)c1C        False

Reference source: PubChem BioAssay AID540276
